Numbers sourced from PubChem BioAssay.

Each item that follows carries a reported inhibition.
PROCEDURE_TEXT: growth suppression of yeast trafficking mutant, preliminary HTS, modulators of trafficking downstream of Golgi apparatus project, 1536-format plate, OD 615 nm (AID 637); note: test concentration not given here
CONDITION_NOTES: yeast transport mutant growth, absorbance 615 nm, 18 h; hits give high values
Expressed in %, but write only the number.

Field: example entries. Status: answers known.
O=C(Nc1ccccc1C(=O)N1CCN(c2ccccc2)CC1)c1ccco1 : 4.43
CCn1c(SCC(=O)Nc2nccs2)nnc1-c1ccncc1 : 2.7
COc1ccc(C2=NOC(C(=O)NCc3ccc(F)cc3)C2)cc1OC (configuration not stated) : 5.4
Cc1ccc(OCC(=O)NCCN2CCCC2)cc1 : 2.3
O=C(O)c1cc2c([nH]c1=O)CCCC2 : -1.82

Input line: Quick one: inhibition of `O=C(Nc1cccc(O)c1)c1ccccc1` ?
Output line: -7.05

Input line: Fill in the blank: the reported inhibition of COCCn1nnnc1C(C(C)C)N1CCN(C(=O)c2ccco2)CC1 (configuration not stated) is ____.
Output line: 15.6

Input line: Name the reported inhibition value associated with the compound Cc1noc(C)c1C(=O)OCC(=O)Nc1ccccc1C(=O)NC(C)c1ccccc1 (configuration not stated)
Output line: 6.72

Input line: Entry under review: CCOc1ccc2[nH]c(=O)c(CN(Cc3nnnn3CCc3ccccc3)CC3CCCO3)cc2c1 (configuration not stated) . Reported inhibition?
Output line: -11.6

Input line: What inhibition value was documented for this compound, `CCn1c(NCc2ccc(N(C)C)cc2)nc2ccccc21` ?
Output line: -1.5

Input line: Given `O=C(OCC(=O)c1c[nH]c2ccccc12)C1=COCCO1` , state its recorded inhibition.
Output line: 6.17

Input line: Sample `CC(=O)CCc1c(C)[nH]c2ccccc2c1=O` — what was its inhibition?
Output line: 13.1
